List of Tm values.
target: hCAR LBD-SRC1 protein (Homo sapiens); construct: The human CAR LBD (Lys^108 – Ser^352) was amplified by PCR from cDNA; HIS6; made in house; host or cells: E. coli BL21(DE3); test: Fluorescence thermal shift assay (TSA); type: binding; conditions: diindoles at 12.5 µM; APO Tm 51.5 °C; means of triplicates
Sequence (Q14994 108-352): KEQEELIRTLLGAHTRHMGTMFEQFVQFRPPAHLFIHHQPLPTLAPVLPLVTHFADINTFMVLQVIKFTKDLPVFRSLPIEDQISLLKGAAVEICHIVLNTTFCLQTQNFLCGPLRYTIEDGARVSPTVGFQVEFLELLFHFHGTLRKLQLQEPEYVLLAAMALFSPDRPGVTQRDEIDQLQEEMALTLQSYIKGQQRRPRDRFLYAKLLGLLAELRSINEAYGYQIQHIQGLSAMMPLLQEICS

[
  {
    "molSmiles": "CCCC(c1c[nH]c2ccccc12)c1c[nH]c2ccccc12",
    "tgt": "hCAR LBD-SRC1 protein (Homo sapiens)",
    "unitString": "°C",
    "Tm": 57.7
  },
  {
    "molSmiles": "CC(c1c[nH]c2ccccc12)c1c[nH]c2ccccc12",
    "tgt": "hCAR LBD-SRC1 protein (Homo sapiens)",
    "unitString": "°C",
    "Tm": 59.6
  },
  {
    "molSmiles": "CC(C)C(c1c[nH]c2ccccc12)c1c[nH]c2ccccc12",
    "tgt": "hCAR LBD-SRC1 protein (Homo sapiens)",
    "unitString": "°C",
    "Tm": 58.3
  },
  {
    "molSmiles": "CCC(c1c[nH]c2ccccc12)c1c[nH]c2ccccc12",
    "tgt": "hCAR LBD-SRC1 protein (Homo sapiens)",
    "unitString": "°C",
    "Tm": 59.1
  },
  {
    "molSmiles": "c1ccc2c(Cc3c[nH]c4ccccc34)c[nH]c2c1",
    "tgt": "hCAR LBD-SRC1 protein (Homo sapiens)",
    "unitString": "°C",
    "Tm": 57.1
  }
]
